System: human HPK1 (MAP4K1) (Homo sapiens (Human))
Sequence (Q92918 17-274): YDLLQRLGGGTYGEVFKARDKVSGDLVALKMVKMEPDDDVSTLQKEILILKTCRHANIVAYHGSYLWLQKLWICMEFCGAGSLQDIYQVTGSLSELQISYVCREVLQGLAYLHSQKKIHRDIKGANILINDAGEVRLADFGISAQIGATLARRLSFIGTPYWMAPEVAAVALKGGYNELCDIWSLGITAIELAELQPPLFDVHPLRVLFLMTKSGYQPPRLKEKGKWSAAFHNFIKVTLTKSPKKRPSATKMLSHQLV
Assay Notes: HPK1 IC50 Assay (TR-FRET peptide phosphorylation)
Assay type: biochemical
Test Conditions: recombinant HPK1 kinase domain 0.15 nM, 10 μM ATP, 1 μM STK S1 peptide; geometric mean of multiple experiments
Each entry below lists one item and its recorded pIC50 value.
Keep in mind that pIC50 stands for -log10 of concentration in molar terms.

Some solved entries appear below for comparison.
>>> endpoint_value("CNC(=O)c1cc(Nc2nc(-c3ccc4c(c3)N([C@H]3C[C@@H](N5CCCCC5)C3)C(=O)C43CCN(C(=O)C4COC4)CC3)cc3ncn(C4CC4)c23)ccc1C [Example 153]")
10.00
>>> endpoint_value("CNC(=O)c1cc(Nc2nc(-c3ccc4c(c3)N([C@H]3C[C@@H](N5CCCCC5)C3)C(=O)C4(C)C)cc3ncn(C4CC4)c23)ccc1C [Example 79]")
9.70
>>> endpoint_value("Cc1cc(F)c(Nc2nc(-c3cnc4c(c3)N([C@H]3C[C@@](C)(N5CCCCC5)C3)C(=O)C43CCOCC3)cc3ncn(C(C)C)c23)cc1C(=O)NC1(C(F)F)CC1 [Example 206]")
10.15

Enquiry: Checklist item: pIC50 tested on human HPK1 (MAP4K1) (Homo sapiens (Human)), entry CNC(=O)c1cc(Nc2nc(-c3ccc4c(c3)N([C@H]3C[C@@H](N5CC(C)(C)C5)C3)C(=O)C4(C)C)cc3ncn(C(C)C)c23)c(F)cc1C [Example 120] , value?
Return: 9.70

Enquiry: Checklist item: pIC50 tested on human HPK1 (MAP4K1) (Homo sapiens (Human)), entry CNC(=O)c1cc(Nc2nc(-c3ccc4c(c3)N([C@H]3C[C@@H](N5CCC[C@@H](F)C5)C3)C(=O)C4(C)C)cc3ncn(C(C)C)c23)ccc1C [Example 106] , value?
Return: 10.15

Enquiry: Checklist item: pIC50 tested on human HPK1 (MAP4K1) (Homo sapiens (Human)), entry CNC(=O)c1cc(Nc2nc(-c3ccc4c(c3)N([C@H]3C[C@@H](N5CCC(C)(C)C5)C3)C(=O)C4(C)C)cc3ncn(C(C)C)c23)ccc1C [Example 3] , value?
Return: 10.00

Enquiry: Checklist item: pIC50 tested on human HPK1 (MAP4K1) (Homo sapiens (Human)), entry CNC(=O)c1cc(Nc2nc(-c3ccc4c(c3)N([C@H]3C[C@@H](N5CCC(C)(C)C5)C3)C(=O)C43CCN(C(C)=O)CC3)cc3ncn(C4CC4)c23)ccc1C [Example 159] , value?
Return: 10.00

Enquiry: Checklist item: pIC50 tested on human HPK1 (MAP4K1) (Homo sapiens (Human)), entry CNC(=O)c1cc(Nc2nc(-c3ccc4c(c3)N([C@H]3C[C@@H](N5CCCCC5)C3)C(=O)C4(C)C)cc3ncn(C(C)C)c23)ccc1Cl [Example 119] , value?
Return: 10.15

Enquiry: Checklist item: pIC50 tested on human HPK1 (MAP4K1) (Homo sapiens (Human)), entry CCNC(=O)c1cc(Nc2nc(-c3cnc4c(c3)N(C3CC(C)(N5CCC6C[C@@H]6C5)C3)C(=O)C4(C)C)cc3ncn(C(C)C)c23)c(F)c(F)c1Cl (some centres unmarked) [Example 252] , value?
Return: 10.30

Enquiry: Checklist item: pIC50 tested on human HPK1 (MAP4K1) (Homo sapiens (Human)), entry CNC(=O)c1cc(Nc2nc(-c3ccc4c(c3)N([C@H]3C[C@@H](N5CCCCC5)C3)C(=O)C4(C)C)cc3ncn(C(C)C)c23)c(F)cc1C [Example 175] , value?
Return: 10.00

Enquiry: Checklist item: pIC50 tested on human HPK1 (MAP4K1) (Homo sapiens (Human)), entry Cc1ccc(Nc2nc(-c3ccc4c(c3)N([C@H]3C[C@@H](N5CCOC(C)(C)C5)C3)C(=O)C4(C)C)cc3ncn(C4CC4)c23)cc1C(N)=O [Example 16] , value?
Return: 10.00
